# target system: Vasopressin V2 receptor (Rattus norvegicus, UniProt Q00788)
# Sequence (Q00788 whole entry): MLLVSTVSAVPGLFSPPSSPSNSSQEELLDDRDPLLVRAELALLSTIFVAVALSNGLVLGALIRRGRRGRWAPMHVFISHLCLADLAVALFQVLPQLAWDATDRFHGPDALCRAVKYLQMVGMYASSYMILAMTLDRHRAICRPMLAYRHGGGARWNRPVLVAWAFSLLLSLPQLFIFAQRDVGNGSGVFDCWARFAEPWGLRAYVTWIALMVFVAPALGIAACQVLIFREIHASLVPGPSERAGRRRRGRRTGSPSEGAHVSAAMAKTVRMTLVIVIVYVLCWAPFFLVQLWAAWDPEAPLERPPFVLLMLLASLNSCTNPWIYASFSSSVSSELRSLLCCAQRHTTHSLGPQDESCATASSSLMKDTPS
# protocol: Displacement of [3H]-AVP from its AVP-V2 receptor binding site in rat kidney
observable: IC50 (µM)

Cc1ccc(C(=O)Nc2ccc(C(=O)N3CCCc4ccccc43)cc2)cc1C ... 1.2

[1] O=C(Nc1ccc(C(=O)N2CCCc3ccccc32)cc1)c1ccsc1
[2] Cc1cccc(C(=O)Nc2ccc(C(=O)N3CCCc4ccccc43)cc2)c1
[3] O=C(Nc1ccc(C(=O)N2CCCc3ccccc32)cc1)c1ccco1
[4] Cc1ccccc1C(=O)Nc1ccc(C(=O)N2CCCC(N)c3ccccc32)cc1 (stereo not given)
Thanks in advance: please rank these 4 entries by IC50, highest to lowest. # format: label list in the order the request specifies
3, 1, 2, 4
